SYSTEM_UNDER_TEST: T1, Human OX40 (Sino Biological Inc) (human, UniProt P43489 29-216, limits assumed)
T1 construct: Bought soluble protein used as SPR analyte; also called huOX40
T1 sequence: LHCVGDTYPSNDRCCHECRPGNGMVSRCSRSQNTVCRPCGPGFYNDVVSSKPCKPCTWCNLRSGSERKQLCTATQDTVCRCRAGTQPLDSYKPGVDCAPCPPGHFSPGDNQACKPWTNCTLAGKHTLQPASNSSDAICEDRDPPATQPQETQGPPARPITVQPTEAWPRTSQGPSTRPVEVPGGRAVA
ASSAY_PROCEDURE: SPR (Biacore), antibody captured via anti-human Fc, huOX40 analyte
MEASUREMENT_TYPE: kon (M⁻¹ s⁻¹)

>>> numeric_value("1A7.gr.6 (antibody, V domains shown, human Fc) VH: EVQLVQSGAEVKKPGASVKVSCKASGYTFTDSYMSWVRQAPGQGLEWIGDMYPDNGDSSYNQKFRERVTITVDTSTSTAYLELSSLRSEDTAVYYCVLAPRWYFSVWGQGTLVTVSS VL: DIQMTQSPSSLSASVGDRVTITCRASQDISNYLNWYQQKPGKTVKLLIYYTSRLRSGVPSRFSGSGSGKDYTLTISSLQPEDFATYFCQQGHTLPPTFGQGTKVEIK")
391000
>>> numeric_value("3C8.gr.6 (antibody, V domains shown, human Fc) VH: EVQLVQSGAEVKKPGASVKVSCKASGYAFTNYLIEWVRQAPGQGLEWIGVINPGSGDTYYSEKFKGRVTITADTSTSTAYLELSSLRSEDTAVYYCARDRLDYWGQGTLVTVSS VL: DIQMTQSPSSLSASVGDRVTITCHASQDISSYIVWYQQKPGKSFKGLIYHGTNLEDGVPSRFSGSGSGADYTLTISSLQPEDFATYYCVHYAQFPYTFGQGTKVEIK")
395000
>>> numeric_value("1A7.gr.4 (antibody, V domains shown, human Fc) VH: EVQLVQSGAEVKKPGASVKVSCKASGYTFTDSYMSWVRQAPGQGLEWIGDMYPDNGDSSYNQKFRERVTITVDTSTSTAYLELSSLRSEDTAVYYCVLAPRWYFSVWGQGTLVTVSS VL: DIQMTQSPSSLSASVGDRVTITCRASQDISNYLNWYQQKPGKTVKLLIYYTSRLRSGVPSRFSGSGSGTDFTLTISSLQPEDFATYYCQQGHTLPPTFGQGTKVEIK")
345000
>>> numeric_value("3C8.gr.4 (antibody, V domains shown, human Fc) VH: EVQLVQSGAEVKKPGASVKVSCKASGYAFTNYLIEWVRQAPGQGLEWIGVINPGSGDTYYSEKFKGRVTITADTSTSTAYLELSSLRSEDTAVYYCARDRLDYWGQGTLVTVSS VL: DIQMTQSPSSLSASVGDRVTITCHASQDISSYIVWYQQKPGKSFKGLIYHGTNLEDGVPSRFSGSGSGTDFTLTISSLQPEDFATYYCVHYAQFPYTFGQGTKVEIK")
420000
>>> numeric_value("3C8.gr.9 (antibody, V domains shown, human Fc) VH: EVQLVQSGAEVKKPGASVKVSCKASGYAFTNYLIEWVRQAPGQGLEWIGVINPGSGDTYYSEKFKGRVTLTRDTSTSTAYLELSSLRSEDTAVYYCARDRLDYWGQGTLVTVSS VL: DIQMTQSPSSLSASVGDRVTITCHASQDISSYIVWYQQKPGKSPKLLIYHGTNLEDGVPSRFSGSGSGTDFTLTISSLQPEDFATYYCVHYAQFPYTFGQGTKVEIK")
404000
